# Lookup of reported IC50 keyed by entry
- TARGET: EGFR (Homo sapiens, UniProt P00533)
- Sequence (P00533 25-1210): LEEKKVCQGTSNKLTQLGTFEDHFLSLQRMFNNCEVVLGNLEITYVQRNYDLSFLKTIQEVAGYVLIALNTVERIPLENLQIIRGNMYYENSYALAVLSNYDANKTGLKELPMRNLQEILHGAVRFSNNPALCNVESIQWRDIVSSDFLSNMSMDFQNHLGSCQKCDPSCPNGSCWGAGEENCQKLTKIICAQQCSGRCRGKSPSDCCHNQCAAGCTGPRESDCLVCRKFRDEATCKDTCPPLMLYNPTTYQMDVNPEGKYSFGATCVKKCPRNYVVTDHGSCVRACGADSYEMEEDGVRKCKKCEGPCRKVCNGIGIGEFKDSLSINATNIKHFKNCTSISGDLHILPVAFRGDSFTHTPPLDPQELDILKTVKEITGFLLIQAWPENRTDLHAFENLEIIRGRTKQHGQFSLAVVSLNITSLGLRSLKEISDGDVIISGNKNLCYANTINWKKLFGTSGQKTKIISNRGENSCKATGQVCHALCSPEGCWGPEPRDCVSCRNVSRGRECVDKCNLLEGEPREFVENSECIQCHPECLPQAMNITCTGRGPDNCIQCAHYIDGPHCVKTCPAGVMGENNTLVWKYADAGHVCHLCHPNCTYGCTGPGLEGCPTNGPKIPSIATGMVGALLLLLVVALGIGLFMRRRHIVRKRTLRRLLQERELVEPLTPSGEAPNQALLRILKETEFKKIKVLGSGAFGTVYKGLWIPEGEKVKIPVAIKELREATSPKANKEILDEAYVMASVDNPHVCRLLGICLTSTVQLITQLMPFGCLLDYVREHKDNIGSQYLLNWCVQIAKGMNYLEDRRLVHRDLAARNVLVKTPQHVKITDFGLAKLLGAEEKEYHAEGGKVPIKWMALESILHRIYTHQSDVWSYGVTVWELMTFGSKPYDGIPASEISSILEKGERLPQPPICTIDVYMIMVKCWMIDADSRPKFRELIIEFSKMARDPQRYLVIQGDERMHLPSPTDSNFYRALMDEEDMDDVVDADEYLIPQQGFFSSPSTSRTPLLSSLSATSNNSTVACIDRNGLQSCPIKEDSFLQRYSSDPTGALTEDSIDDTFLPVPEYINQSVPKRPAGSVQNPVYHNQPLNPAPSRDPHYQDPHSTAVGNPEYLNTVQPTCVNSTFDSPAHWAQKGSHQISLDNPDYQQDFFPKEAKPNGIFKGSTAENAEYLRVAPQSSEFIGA

Some solved cases for reference:
                            smiles_notation  measure  experimental_result
0  CCc1nc(-c2cccc(NS(=O)(=O)c3ccccc3)c2)c(-c2ccnc(Nc3ccc(OC)c(N4CCN(CCS(C)(=O)=O)CC4)c3)n2)s1     IC50       100 to 1000 nM
1  CC(C)c1nc(-c2cccc(NS(=O)(=O)c3c(F)cccc3F)c2)c(-c2ccnc(Nc3ccc(N4CC[C@@H](O)C4)nc3)n2)s1     IC50       100 to 1000 nM
2  CC(C)c1nc(-c2cccc(NS(=O)(=O)c3c(F)cccc3F)c2F)c(-c2ccnc(Nc3cnc(N4CCOCC4)c(F)c3)n2)s1     IC50            > 1000 nM
3  COc1cc(N2CCN(CCS(C)(=O)=O)CC2)c(C)cc1Nc1nccc(-c2sc(C)nc2-c2cccc(NS(=O)(=O)c3c(F)cccc3F)c2)n1     IC50             < 100 nM
4  COc1cc(OCCN2CCOCC2)c(C)cc1Nc1nccc(-c2sc(C(C)C)nc2-c2cccc(NS(=O)(=O)c3c(F)cccc3F)c2F)n1     IC50       100 to 1000 nM

Exam item: Please respond with reported IC50 (system EGFR (Homo sapiens, UniProt P00533)) for `CCNc1nc(-c2ccc(F)c(NS(=O)(=O)c3c(F)cccc3F)c2)c(-c2ccnc(Nc3ccc(N4CCOCC4)nc3)n2)s1` .
Marked response: 100 to 1000 nM

Exam item: Please respond with reported IC50 (system EGFR (Homo sapiens, UniProt P00533)) for `O=S(=O)(Nc1cccc(-c2nc(N3CCCC3)sc2-c2ccnc(Nc3ccc(N4CCN(CCF)CC4)c(F)c3)n2)c1)c1c(F)cccc1F` .
Marked response: < 100 nM

Exam item: Please respond with reported IC50 (system EGFR (Homo sapiens, UniProt P00533)) for `Cc1[nH]c(=O)[nH]c(=O)c1S(=O)(=O)Nc1cccc(-c2nc(C(C)C)sc2-c2ccnc(Nc3ccc(N4CCOCC4)nc3)n2)c1` .
Marked response: > 1000 nM

###

- TARGET: B-Raf (Homo sapiens)
- Sequence (P15056 whole entry): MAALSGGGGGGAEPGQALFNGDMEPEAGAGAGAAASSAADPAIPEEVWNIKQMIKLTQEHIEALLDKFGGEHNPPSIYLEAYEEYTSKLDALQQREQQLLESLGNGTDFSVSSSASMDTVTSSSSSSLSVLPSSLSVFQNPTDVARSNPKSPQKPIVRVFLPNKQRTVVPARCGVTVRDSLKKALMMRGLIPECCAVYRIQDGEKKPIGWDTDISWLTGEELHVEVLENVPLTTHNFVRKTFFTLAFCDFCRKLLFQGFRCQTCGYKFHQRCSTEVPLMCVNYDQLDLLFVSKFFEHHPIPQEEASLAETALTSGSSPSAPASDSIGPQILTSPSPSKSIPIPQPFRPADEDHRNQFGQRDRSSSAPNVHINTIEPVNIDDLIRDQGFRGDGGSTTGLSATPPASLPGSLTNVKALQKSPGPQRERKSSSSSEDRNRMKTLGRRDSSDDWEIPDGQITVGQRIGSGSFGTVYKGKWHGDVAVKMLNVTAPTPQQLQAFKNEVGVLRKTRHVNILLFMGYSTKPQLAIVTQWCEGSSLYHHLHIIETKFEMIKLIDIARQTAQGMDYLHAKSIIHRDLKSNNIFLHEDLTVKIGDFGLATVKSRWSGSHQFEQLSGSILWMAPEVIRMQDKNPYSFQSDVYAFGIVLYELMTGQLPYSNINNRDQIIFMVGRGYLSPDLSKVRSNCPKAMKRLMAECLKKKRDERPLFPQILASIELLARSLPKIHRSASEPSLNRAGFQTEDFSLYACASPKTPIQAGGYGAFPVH
- MEASUREMENT_NOTES: B-Raf Accelerated MEK ATPase assay (BRAMA), Method A or B
- Type: biochemical
- EXPERIMENTAL_PARAMETERS: Method B: final MEK 150 nM, single end point read
- Method: Compounds of the present invention were tested for B-Raf protein serine kinase inhibitory activity in a B-Raf Accelerated MEK ATPase assay (BRAMA). […] Method A: Specific details of the assay are disclosed in: C. […] Method B: The method is the same as method A, but includes the following changes: 1) the assay was performed with a final MEK concentration of 150 nM and 2) the assay was read as single end point instead of a kinetic read.
pIC50: −log10 of the molar value.
# Lookup of reported pIC50 keyed by entry

Some solved cases for reference:
                                   compound  experimental_result
0  COc1cc(N2CCN(CCS(C)(=O)=O)CC2)c(C)cc1Nc1nccc(-c2sc(C3CC3)nc2-c2cccc(NS(=O)(=O)c3c(F)cccc3F)c2)n1 [Example 175]         6.00 to 7.00
1  CN1CCN(c2nc(-c3ccc(F)c(NS(=O)(=O)c4c(F)cccc4F)c3)c(-c3ccnc(Nc4ccc(N5CCOCC5)nc4)n3)s2)CC1 [Example 126]               > 7.00
2  CC(C)c1nc(-c2cc(F)c(F)c(NS(=O)(=O)c3cccc(F)c3)c2)c(-c2ccnc(Nc3ccc(N4CCN(CCF)CC4)c(F)c3)n2)s1 [Example 101]               > 7.00

Exam item: Look up pIC50 of COc1cc(N2CCN(CCS(C)(=O)=O)CC2)c(C)cc1Nc1nccc(-c2sc(CC(C)C)nc2-c2cccc(NS(=O)(=O)c3c(F)cccc3F)c2)n1 [Example 161] and report it.
Marked response: 6.00 to 7.00

Exam item: Look up pIC50 of CS(=O)(=O)CCN1CCN(c2ccc(Nc3nccc(-c4oc(N5CCCC5)nc4-c4ccc(F)c(NS(=O)(=O)c5c(F)cccc5F)c4)n3)cc2F)CC1 [Example 119] and report it.
Marked response: > 7.00

###

# Lookup of reported IC50 keyed by entry
- System: A375P F11s tumor cells
- MEASUREMENT_NOTES: Cell growth inhibition assay (CellTiter-Glo), A375P F11s
- Assay type: cell-based, Human
- EXPERIMENTAL_PARAMETERS: Homo sapiens

                            smiles_notation  experimental_result
0  CC(C)c1nc(-c2cccc(NS(=O)(=O)c3c(F)cccc3F)c2)c(-c2ccnc(Nc3ccc(N4CCN5CCOC[C@H]5C4)nc3)n2)s1             < 100 nM
1  CC(C)c1nc(-c2cccc(NS(=O)(=O)c3c(F)cccc3F)c2)c(-c2ccnc(Nc3ccc(N4CCOCC4)c(F)c3)n2)o1       100 to 1000 nM
2  CC(C)c1nc(-c2cccc(NS(=O)(=O)c3ccccc3)c2)c(-c2ccnc(Nc3ccc(N4CCOCC4)cn3)n2)s1       100 to 1000 nM
3  CC(C)c1nc(-c2cccc(NS(=O)(=O)c3c(F)cccc3F)c2)c(-c2ccnc(Nc3ccc(N4CC[C@@H](O)C4)nc3)n2)s1             < 100 nM
4  CCc1nc(-c2cccc(NS(=O)(=O)c3ccccc3)c2)c(-c2ccnc(Nc3cc(OC)c(OC)c(OC)c3)n2)s1             < 100 nM

Exam item: Look up IC50 of `COc1ccc(S(=O)(=O)Nc2cccc(-c3nc(C(C)C)sc3-c3ccnc(Nc4ccc(N5CCOCC5)nc4)n3)c2)cn1` and report it.
Marked response: < 100 nM

###

- System: A375P F11s tumor cells
- MEASUREMENT_NOTES: Cell growth inhibition assay (CellTiter-Glo), A375P F11s
- Format: cell-based, Human
- EXPERIMENTAL_PARAMETERS: Homo sapiens
Structures can show the parent of a compound that is named as a salt.
# Lookup of reported IC50 keyed by entry

In [3]: df
Out[3]:
                                   compound  experimental_result
0  CN1CCC(c2nc(-c3ccc(F)c(NS(=O)(=O)c4c(F)cccc4F)c3)c(-c3ccnc(Nc4ccc(N5CCOCC5)nc4)n3)s2)CC1             < 100 nM
1  COc1cc(N2CCC(N3CCN(CCS(C)(=O)=O)CC3)CC2)ccc1Nc1nccc(-c2sc(C(C)C)nc2-c2cccc(NS(=O)(=O)c3c(F)cccc3F)c2)n1       100 to 1000 nM
2  CC(C)c1nc(-c2cc(F)cc(NS(=O)(=O)c3ccc(F)cc3)c2)c(-c2ccnc(Nc3ccc(N4CCOCC4)c(F)c3)n2)s1       100 to 1000 nM
3  CC(C)c1nc(-c2cccc(NS(=O)(=O)c3c(F)cccc3F)c2)c(-c2ccnc(Nc3cc(F)c(N4CCN(CCS(C)(=O)=O)CC4)cc3F)n2)s1             < 100 nM

Exam item: Look up IC50 of COc1ccc(Nc2nccc(-c3sc(C(C)C)nc3-c3cccc(NS(=O)(=O)c4c(F)cccc4F)c3)n2)cc1N(C)C [Example 18, trifluoroacetate] and report it.
Marked response: < 100 nM

Exam item: Look up IC50 of `CC(C)c1nc(-c2cc(F)cc(NS(=O)(=O)c3c(F)cccc3F)c2)c(-c2ccnc(Nc3ccc(N4CCOCC4)c(F)c3)n2)s1` and report it.
Marked response: < 100 nM

###

- Test system: A375P F11s tumor cells
- MEASUREMENT_NOTES: Cell growth inhibition assay (CellTiter-Glo), A375P F11s
- Format: cell-based, Human
- EXPERIMENTAL_PARAMETERS: Homo sapiens
pIC50: −log10 of the molar value.
MEASURE: pIC50

Exam item: Look up pIC50 of CC(C)c1nc(-c2ccc(F)c(NS(=O)(=O)c3c(F)cccc3F)c2)c(-c2ccnc(Nc3ccc(N4CCC(C#N)CC4)nc3)n2)s1 [Example 24] and report it.
Marked response: > 7.00

Exam item: Look up pIC50 of CC(C)c1nc(-c2ccc(F)c(NS(=O)(=O)c3c(F)cccc3F)c2)c(-c2ccnc(Nc3ccc(N4CCOCC4)nc3)n2)s1 [Example 23] and report it.
Marked response: > 7.00

###

- TARGET: B-Raf (Homo sapiens)
- MEASUREMENT_NOTES: B-Raf Accelerated MEK ATPase assay (BRAMA), Method A or B
- Type: biochemical
- EXPERIMENTAL_PARAMETERS: Method B: final MEK 150 nM, single end point read
MEASURE: IC50

Some solved cases for reference:
In [3]: df
Out[3]:
                            smiles_notation                target  experimental_result
0  CCc1nc(-c2cccc(CNS(=O)(=O)c3ccccc3)c2)c(-c2ccnc(Nc3ccc(N4CCN(C(C)=O)CC4)nc3)n2)s1  B-Raf (Homo sapiens)       100 to 1000 nM
1  COc1ccc(S(C)(=O)=O)cc1Nc1nccc(-c2sc(N3CCOCC3)nc2-c2cccc(NS(=O)(=O)c3c(F)cccc3F)c2OC)n1  B-Raf (Homo sapiens)             < 100 nM

Note: attention shifts to another entry.
Exam item: Please respond with reported IC50 (system B-Raf (Homo sapiens)) for `Cc1cc(Nc2nccc(-c3sc(C(C)C)nc3-c3ccc(F)c(NS(=O)(=O)c4c(F)cccc4F)c3)n2)ccn1` .
Marked response: < 100 nM
